Would you kindly list FACS signal at 133.335 nM for each of these binders?
- STUDY_SYSTEM: T1, human LAG3 expressed on cells (human, UniProt P18627 23-525)
- T1 construct: whole, on cells
- T1 sequence (looked up): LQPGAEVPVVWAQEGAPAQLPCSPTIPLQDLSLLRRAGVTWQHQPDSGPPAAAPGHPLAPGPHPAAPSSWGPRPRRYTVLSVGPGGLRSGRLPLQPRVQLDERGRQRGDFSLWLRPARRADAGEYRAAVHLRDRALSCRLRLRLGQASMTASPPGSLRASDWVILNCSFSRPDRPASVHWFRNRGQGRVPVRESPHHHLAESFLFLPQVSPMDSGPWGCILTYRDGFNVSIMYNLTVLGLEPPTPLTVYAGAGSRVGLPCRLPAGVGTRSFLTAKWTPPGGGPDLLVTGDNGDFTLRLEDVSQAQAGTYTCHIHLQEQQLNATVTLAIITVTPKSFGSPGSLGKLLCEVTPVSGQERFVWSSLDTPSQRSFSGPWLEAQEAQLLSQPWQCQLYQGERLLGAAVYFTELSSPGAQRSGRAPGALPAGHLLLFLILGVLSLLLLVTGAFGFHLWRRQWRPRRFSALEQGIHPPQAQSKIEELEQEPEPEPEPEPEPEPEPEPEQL
- PROTOCOL_DETAILS: FACS, 293T-hLAG3 cells
The answer should be written as a number, with no unit following it.

Query: Reported FACS signal at 133.335 nM for sdAb No. 27-H1B3 (VHH, Humanized sdAb No. 27-H1; not shown: Fc part implied by anti-human IgG Fc detection) VHH: QVQLVESGGGLVQPGGSLRLSCAASGFTLDYYAIGWFRQAPGKEREGVSCIRSSDASTYYADSVKGRFTISSDNSKNTVYLQMNSLRAEDTAVYYCATDRYSDCRGPYENWGQGTMVTVSS : what is it?
Result: 4630

Query: Reported FACS signal at 133.335 nM for sdAb No. 25-B7 (VHH, Humanized sdAb No. 25; not shown: Fc part implied by anti-human IgG Fc detection) VHH: QLQLVESGGGLVKPGGSLRLSCAASGSIESFSFMGWYRQAPGKQRELVAGFTGAASLSFSTYTDAVKGRFTISRDNAKNSVYLQMNSLRAEDTAVYFCNVDPWSQSWPGRYWGQGTTVTVSS : what is it?
Result: 2380

Query: Reported FACS signal at 133.335 nM for sdAb No. 25 (VHH, Fc of the tested form not described; also called sdAb 25; sdAb #25; not shown: Fc part implied by anti-human Fc capture and anti-human IgG Fc detection) VHH: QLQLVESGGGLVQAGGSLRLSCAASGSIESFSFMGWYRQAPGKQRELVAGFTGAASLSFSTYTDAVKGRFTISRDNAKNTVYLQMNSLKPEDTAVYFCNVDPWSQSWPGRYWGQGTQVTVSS : what is it?
Result: 2580

Query: Reported FACS signal at 133.335 nM for sdAb No. 27 (VHH, Fc of the tested form not described; also called sdAb 27; not shown: Fc part implied by anti-human Fc capture and anti-human IgG Fc detection) VHH: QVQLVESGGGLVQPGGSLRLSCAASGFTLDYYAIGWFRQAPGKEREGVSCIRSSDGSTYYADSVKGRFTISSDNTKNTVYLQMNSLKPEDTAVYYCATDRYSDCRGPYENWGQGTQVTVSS : what is it?
Result: 4630

The reported numbers originate from patent US20230303690A1.
